test system: NCI-H23; test: NCI-60 SRB growth inhibition, one-dose and five-dose; type: cell-based; conditions: Homo sapiens, NCI-H23, read-out: percent growth inhibition
Record true (1) whenever inhibition at 10 µM is at 80% or higher; record false (0) when lower.

Solved entries:
>  <chemical.string>
CC(=O)Nc1ccc(CNc2cccc(C(=O)/C=C/c3c[nH]cn3)c2)cc1

>  <class>
false (0)

$$$$
>  <chemical.string>
O=C(/C=C/c1cccnc1)c1cccc(NCc2csc3ccccc23)c1

>  <class>
true (1)

$$$$

Input: Decide: inhibition at 10 µM of CC(=O)Nc1ccc(/C=C/C(=O)c2cccc(NCc3csc4ccccc34)c2)cc1 >= 80%?
Output: false (0)

Input: Decide: inhibition at 10 µM of CC(=O)Nc1ccc(/C=C/C(=O)c2cccc(NCc3ccc4oc(=O)ccc4c3)c2)cc1 >= 80%?
Output: false (0)

Reference for the values: paper PMC11003488
